Tested on: Target C mRNA
Assay Info: Splicing RT-qPCR gene panel, Target C canonical junction (CJ) mRNA
Assay type: cell-based, human
Particulars: Homo sapiens, Tables 4A/4B, read-out: Target C (IC50, decrease in CJ mRNA, gene panel)
# IC50 values compiled below

As a guide, the following entries are already answered.
>>> df
                                   compound    test_target  test_value
0  Cc1cn2cc(NC(=O)c3ccc(N4CCNCC4)c4cn(CC(F)(F)F)nc34)cc(F)c2n1  Target C mRNA     > 10 µM
1  CC(=O)Cn1cc2c(N3CCNCC3)ccc(C(=O)Nc3cc(F)c4nc(C)cn4c3)c2n1  Target C mRNA     > 10 µM
2  Cc1cn2cc(NC(=O)c3ccc(N4CCC(N(C)C)CC4)c4csnc34)cc(F)c2n1  Target C mRNA  1 to 10 µM

Asked: Using known records, supply IC50 for Cc1cn2cc(NC(=O)c3ccc(N4CCNCC4)c4c(C)n(C)nc34)cc(F)c2n1
Given back: 1 to 10 µM

Asked: Return the recorded IC50 value; entry: CC1=CC2C(N3CCC(N(C)C)CC3)=CC=C(C(=O)Nc3cc(F)c4nc(C)cn4c3)C2O1 (stereo not drawn)
Given back: 1 to 10 µM

Asked: Provide IC50 value for the following compound: Cc1cc2c(N3CCNCC3)ccc(C(=O)Nc3cn[nH]c3)c2o1
Given back: > 10 µM
